assay: pKa determination by 1H NMR pH titration; type: physicochemical; settings: 1H NMR, 37°C; too low to contribute to ion trapping; read-out: pKa (second, lower value)

{"columns": ["COMPOUND", "pKa"],
 "data": [
  ["COC1C=CC=C(C)C(=O)NC2=CC(=O)C(NCCN3CCNCC3)=C(CC(C)CC(OC)C(O)C(C)C=C(C)C1OC(N)=O)C2=O (stereo not shown)", 4.2]
]}

###

assay: pKa determination by 1H NMR pH titration; format: physicochemical
MEASURED PROPERTY: pKa

{"columns": ["COMPOUND", "TEST VALUE"],
 "data": [
  ["COC1C=CC=C(C)C(=O)NC2=CC(=O)C(NCCN(C)C)=C(CC(C)CC(OC)C(O)C(C)C=C(C)C1OC(N)=O)C2=O (stereo not shown) [Compound 3]", 7.8]
]}
